test: inhibitors of Clostridioides difficile proliferation – 4-point retest, confirmation (AID 1224921); conditions: Clostridioides difficile clinical isolate growth, OD600, 24 h, active compounds read low; at 30 µM unless noted;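 also: plate controls were DMSO wells for no effect and levofloxacin 16 µg/mL wells for full effect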
In all, about 1,400 compounds went through this assay and about 350 (25%) were called active. Inconclusive results (about 2%) are left out. Only a sample is shown. Potency and affinity values are given separately.
MEASUREMENT_KIND: max activity

Look over these answered cases.
C[C@H]1CN([C@@H](C)CO)S(=O)(=O)c2ccc(C#CCC3CCCC3)cc2O[C@@H]1CN(C)C(=O)CC1CC1 ... 19.7% [at 8 µM] (inactive)
CC(C)CC#Cc1ccc2c(c1)O[C@H](CN(C)Cc1ccncc1)[C@@H](C)CN([C@H](C)CO)S2(=O)=O ... 17.5% (inactive)
Cc1noc(C)c1NC(=O)N[C@H]1CC[C@@H](CC(=O)Nc2ccc(-c3ccccc3)cc2)O[C@H]1CO ... 12.6% (inactive)
CC(C)CC#Cc1ccc2c(c1)O[C@@H](CN(C)Cc1cccnc1)[C@@H](C)CN([C@H](C)CO)S2(=O)=O ... 41.2% (inactive)
CO[C@H]1CN(C)C(=O)c2ccc(NC(=O)c3ccccc3F)cc2OC[C@@H](C)N(CC2CC2)C[C@H]1C ... 9.45% (inactive)

Please report max activity for every entry that follows.
1. C[C@@H]1CN([C@H](C)CO)S(=O)(=O)c2ccc(C3=CCCCC3)cc2O[C@@H]1CN(C)Cc1ccncc1
2. CCCN1C[C@H](C)[C@@H](OC)CN(C)C(=O)c2cc(NC(=O)Nc3ccccc3F)ccc2OC[C@H]1C
3. C[C@H]1CCCCO[C@@H](CN(C)Cc2ccc(C(=O)O)cc2)[C@@H](C)CN([C@@H](C)CO)C(=O)c2cc(NC(=O)Nc3ccc4c(c3)OCO4)ccc2O1
4. COC(=O)[C@H]1[C@H](CO)[C@H]2Cn3c(ccc(-c4cccc(F)c4)c3=O)[C@H]2N1S(C)(=O)=O
5. CCCC(=O)Nc1ccc2c(c1)C(=O)N(C)C[C@H](OC)[C@@H](C)CN(S(=O)(=O)c1cn(C)cn1)[C@@H](C)CO2
6. CCC(=O)Nc1ccc2c(c1)C(=O)N(C)C[C@H](OC)[C@@H](C)CN(C(=O)CN1CCOCC1)[C@H](C)CO2

**Result**
1: 19.4% (inactive); 2: -17.1% [at 8 µM] (inactive); 3: -7.43% (inactive); 4: 23.4% (inactive); 5: -11.7% (inactive); 6: -15.4% [at 1.95 µM] (inactive)

Hi, could you look up max activity for each item in my list?
1. C[C@@H]1CN([C@H](C)CO)C(=O)c2cccc(NS(C)(=O)=O)c2O[C@H]1CN(C)Cc1ccccc1
2. CCCC#Cc1ccc([C@@H]2[C@@H](CO)N(S(=O)(=O)c3cccc(F)c3)[C@H]2C#N)cc1
3. C[C@@H]1CN([C@@H](C)CO)C(=O)c2cccc(NC(=O)Nc3ccc(C(F)(F)F)cc3)c2O[C@H]1CN(C)Cc1ccc2c(c1)OCO2
4. CCNC(=O)C[C@H]1CC[C@@H](NC(=O)C2CC2)[C@H](CO)O1
5. CCC(=O)Nc1ccc2c(c1)C(=O)N(C)[C@@H]1CC[C@H](CC(=O)NCc3ccc(OC)cc3)O[C@@H]1CO2
6. C[C@H]1CN([C@@H](C)CO)C(=O)c2cccc(NC(=O)Nc3ccc(C(F)(F)F)cc3)c2O[C@@H]1CN(C)Cc1ccc2c(c1)OCO2
7. COC(=O)[C@@H]1[C@@H](CO)[C@@H]2Cn3c(ccc(-c4cccc(F)c4)c3=O)[C@@H]2N1C(C)=O

**Result**
1: 32.7% (inactive); 2: 12.2% [at 1.95 µM] (inactive); 3: 34.4% [at 8 µM] (inactive); 4: -5.49% [at 1.95 µM] (inactive); 5: -3.51% [at 1.95 µM] (inactive); 6: 42% (inactive); 7: 11.6% [at 8 µM] (inactive)

* * *

assay: inhibitors of Clostridioides difficile proliferation – 4-point retest, confirmation (AID 1224921); details: Clostridioides difficile clinical isolate growth, OD600, 24 h, active compounds read low; at 30 µM unless noted;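 also: plate controls were DMSO wells for no effect and levofloxacin 16 µg/mL wells for full effect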
In all, about 1,400 compounds went through this assay and about 350 (25%) were called active. Another 2% or so got no clear call; they are omitted. Only a sample is shown. Potency and affinity values are given separately.
MEASUREMENT_KIND: max activity

O=C(NCCc1ccccc1)[C@H]1[C@H](CO)[C@H]2Cn3c(cccc3=O)[C@@H]1N2C(=O)C1CC1 ... -7.04% (inactive)
Cc1noc(C)c1NC(=O)N[C@H]1CC[C@@H](CC(=O)Nc2ccc(-c3ccccc3)cc2)O[C@@H]1CO ... 28.3% [at 35 µM] (inactive)

# batch size: 3; output max activity per entry
1. CC(C)C(=O)Nc1ccc2c(c1)C(=O)N(C)[C@H]1CC[C@@H](CC(=O)NCc3ccccc3F)O[C@H]1CO2
2. COc1ccc(-c2ccc([C@@H]3[C@@H](C#N)N(C(=O)C4CCCC4)[C@H]3CO)cc2)cc1
3. O=C(Nc1cc(F)ccc1F)N[C@H]1CC[C@@H](CC(=O)N2CCc3ccccc3C2)O[C@H]1CO

**Result**
1: -11.1% [at 1.95 µM] (inactive); 2: 25.6% (inactive); 3: -5.46% [at 0.5 µM] (inactive)

* * *

assay: inhibitors of Clostridioides difficile proliferation – 4-point retest, confirmation (AID 1224921); settings: Clostridioides difficile clinical isolate growth, OD600, 24 h, active compounds read low; at 30 µM unless noted;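 also: plate controls were DMSO wells for no effect and levofloxacin 16 µg/mL wells for full effect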
The whole screen tested about 1,400 compounds, of which about 350 (25%) were called active. Another 2% or so got no clear call; they are omitted. A selection follows. Potency and affinity values are given separately.
Task for the reader: assign each of the following compounds its reported max activity.

Worked cases, answers included:
O=C(CN1CCOCC1)N[C@@H]1CC[C@@H](CCNS(=O)(=O)c2ccccc2F)O[C@@H]1CO ... -8.89% [at 0.5 µM] (inactive)
C[C@@H]1CN([C@@H](C)CO)C(=O)c2cc(NC(=O)Nc3ccc(C(F)(F)F)cc3)ccc2O[C@@H](C)CCCCO[C@@H]1CN(C)C ... 6.76% [at 8 µM] (inactive)

For every listed record, write down its max activity.
1. COc1cccc(-c2ccc3c(c2)O[C@@H](CN(C)Cc2cccnc2)[C@H](C)CN([C@@H](C)CO)S3(=O)=O)c1
2. CCC(=O)Nc1ccc2c(c1)OC[C@H](C)N(CC1CCCCC1)C[C@H](C)[C@@H](OC)CN(C)C2=O
3. CC(=O)N(C)C[C@H]1Oc2ncc(C#Cc3ccccc3F)cc2C(=O)N([C@@H](C)CO)C[C@@H]1C
4. CO[C@H]1CN(C)C(=O)c2cc(NC(=O)Nc3cccc(F)c3)ccc2OC[C@@H](C)N(C)C[C@H]1C

**Result**
1: 12.1% (inactive); 2: 33.6% (inactive); 3: 60.6% (inactive); 4: -11.4% [at 1.95 µM] (inactive)

Give one value of max activity per listed compound.
1. C[C@H](CO)N1C[C@H](C)[C@@H](CN(C)Cc2ccc(C(F)(F)F)cc2)OCCCC[C@H](C)Oc2ccc(NC(=O)CCCN(C)C)cc2C1=O
2. CO[C@@H]1CN(C)C(=O)c2ccc(NC(=O)c3ccccc3F)cc2OC[C@@H](C)N(CC2CC2)C[C@H]1C
3. CCCC(=O)Nc1ccc2c(c1)C(=O)N(C)C[C@H](OC)[C@H](C)CN(Cc1ccc(F)cc1)[C@H](C)CO2
4. CO[C@@H]1CN(C)C(=O)c2ccc(NC(=O)c3ccc(Oc4ccccc4)cc3)cc2OC[C@@H](C)NC[C@H]1C

**Result**
1. 16.3% (inactive)
2. -10.7% [at 1.95 µM] (inactive)
3. 22.5% (inactive)
4. -19.3% [at 2.1 µM] (inactive)

* * *

assay: inhibitors of Clostridioides difficile proliferation – 4-point retest, confirmation (AID 1224921); conditions: Clostridioides difficile clinical isolate growth, OD600, 24 h, active compounds read low; at 30 µM unless noted;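 also: plate controls were DMSO wells for no effect and levofloxacin 16 µg/mL wells for full effect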
About 350 (25%) of roughly 1,400 compounds were called active. Another 2% or so got no clear call; they are omitted. Only a sample is shown. Entries with a potency or affinity are not part of this list.
Kindly state max activity for each of the entries shown.

C[C@H]1CN([C@@H](C)CO)C(=O)c2cccc(NC(=O)NC3CCCCC3)c2O[C@H]1CN(C)C(=O)Nc1ccc(C(F)(F)F)cc1 ... 17.7% [at 7.5 µM] (inactive)
C[C@@H]1CN([C@H](C)CO)C(=O)c2ccccc2-c2ccccc2CO[C@H]1CN(C)S(=O)(=O)c1ccc(Cl)cc1 ... 34.1% (inactive)
CCCC(=O)Nc1ccc2c(c1)C(=O)N(C)C[C@H](OC)[C@@H](C)CN(Cc1ccccc1)[C@@H](C)CO2 ... 22.4% (inactive)
CO[C@H]1CN(C)C(=O)c2ccc(NC(=O)c3nc4ccccc4s3)cc2OC[C@@H](C)N(Cc2cccnc2)C[C@@H]1C ... 23.4% (inactive)

**Query** Requested field: max activity. Item: C[C@H]1CN([C@@H](C)CO)S(=O)(=O)c2ccc(C3=CCCCC3)cc2O[C@H]1CN(C)C(=O)C1CCCCC1
**Result** 30.6% (inactive)
